target.or.system: AuroraB (Homo sapiens)
Construct: 20 μL of AuroraB FL H is for a final volume of 41 μL; His
Sequence (Q96GD4 whole entry): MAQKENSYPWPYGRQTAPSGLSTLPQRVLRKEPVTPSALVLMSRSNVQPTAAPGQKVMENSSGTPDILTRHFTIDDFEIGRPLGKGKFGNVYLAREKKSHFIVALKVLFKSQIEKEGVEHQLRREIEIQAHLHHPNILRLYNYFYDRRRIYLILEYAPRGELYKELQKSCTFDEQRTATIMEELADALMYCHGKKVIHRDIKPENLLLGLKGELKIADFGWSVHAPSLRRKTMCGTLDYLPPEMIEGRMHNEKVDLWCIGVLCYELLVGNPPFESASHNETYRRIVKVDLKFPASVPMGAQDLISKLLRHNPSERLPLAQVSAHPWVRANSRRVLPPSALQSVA
test.name: AuroraB Homogeneous Time Resolved Fluorescent (HTRF) kinase assay
Assay type: biochemical
setup.conditions: average; read-out: AurB_IC50_IP (uM Avg)
Each entry below carries its reported IC50.
Return type: number; implicit unit µM.

Sample answers from the record:
[
  {
    "compound": "COc1cnc2c(Sc3ccc(Nc4nnc(-c5ccc(Cl)cn5)c5ccccc45)cc3)ccnc2c1 [compound 325]",
    "IC50 / µM": 0.019
  },
  {
    "compound": "COc1cc2nccc(Oc3ccc(Nc4nnc(-c5cccc(OC)n5)c5ccccc45)cc3)c2cn1",
    "IC50 / µM": 0.003
  },
  {
    "compound": "COc1ccccc1-c1nnc(Nc2ccc(Oc3ccnc4cc(C#N)ccc34)cc2)c2ccccc12",
    "IC50 / µM": 0.007
  },
  {
    "compound": "Cc1ccc(-c2nnc(Nc3ccc(Sc4ccnc5ccoc45)cc3)c3ccccc23)cc1F",
    "IC50 / µM": 0.059
  },
  {
    "compound": "COc1ccc(-c2nnc(Nc3ccc(Oc4ccnc5cc(OC)cnc45)cc3)c3ccccc23)cc1",
    "IC50 / µM": 0.004
  }
]

stdin: IC50 of `O=C(c1cc2nccc(Oc3ccc(Nc4nnc(-c5ccc(Cl)cc5)c5ccccc45)cc3)c2s1)N1CCOCC1` on AuroraB (Homo sapiens)?
stdout: 0.006

stdin: Write down the reported IC50 of `COc1cnc2c(Oc3ccc(Nc4nnc(N5CC[C@H]6CCCC[C@H]6C5)c5ccccc45)cc3)ccnc2c1` , test system: AuroraB (Homo sapiens).
stdout: 0.019

----------
target.or.system: AuroraB (Homo sapiens)
Construct: 20 μL of AuroraB FL H is for a final volume of 41 μL; His
test.name: AuroraB Homogeneous Time Resolved Fluorescent (HTRF) kinase assay
Type: biochemical
setup.conditions: average; read-out: AurB_IC50_IP (uM Avg)
Quick reference for IC50 among some compounds

Before answering, review these 5 worked examples.
[
  {
    "compound": "Cc1csc(-c2nnc(Nc3ccc(Oc4ccnc5cc(C(N)=O)ccc45)cc3)c3ccccc23)n1 [compound 95]",
    "IC50": "0.002 µM"
  },
  {
    "compound": "COc1cc2nccc(Oc3ccc(Nc4nnc(-c5ccccc5)c5ccccc45)cc3)c2cc1C(N)=O [compound 225]",
    "IC50": "0.004 µM"
  },
  {
    "compound": "COc1cnc2c(Oc3ccc(Nc4nnc(-c5ccc6c(c5)CCO6)c5ccccc45)cc3)ccnc2c1 [compound 168]",
    "IC50": "0.005 µM"
  },
  {
    "compound": "COc1cnc2c(Oc3ccc(Nc4nnc(-c5cccnc5F)c5ccccc45)cc3)ccnc2c1 [compound 191]",
    "IC50": "0.009 µM"
  },
  {
    "compound": "Cc1ccc(-c2nnc(Nc3ccc(Oc4ccnc5cc(C#N)ccc45)cc3)c3ccccc23)nc1 [compound 122]",
    "IC50": "0.003 µM"
  }
]

stdin: // lookup IC50 | system=AuroraB (Homo sapiens) | key= COc1cnnc(Nc2ccc(Oc3ccnc4cc(OC)cnc34)cc2)c1 [compound 456]
stdout: 0.058 µM

stdin: Find IC50 (AuroraB (Homo sapiens)) for the entry COc1cnc2c(Sc3ccc(Nc4nnc(C5CC5)c5ccccc45)cc3)ccnc2c1 [compound 541]
stdout: 0.025 µM

stdin: So what IC50 did FC(F)(F)Oc1ccc2nccc(Sc3ccc(Nc4nnc(-c5ccccc5)c5ccccc45)cc3)c2c1 [compound 571] get with AuroraB (Homo sapiens)?
stdout: > 25 µM
